# Test system: bermudagrass (Cynodon dactylon)
# EXPERIMENT_DESCRIPTION: Test C pre/postemergence
# Format: in vivo
# EXPERIMENTAL_CONTEXT: Preemergence, 250 g ai/ha; scale 0 to 100
# Plant response rating, Bermudagrass per entry
MEASURED_PROPERTY: Plant response rating, Bermudagrass

>  <SMILES_TEXT>
CCOC(=O)Cc1nc(C2CC2)nc(N)c1Br

>  <MEASURED_PROPERTY>
Plant response rating, Bermudagrass

>  <MEASUREMENT>
20

$$$$
>  <SMILES_TEXT>
COC(=O)CNc1nc(C2CC2)nc(C(=O)OC)c1Br

>  <MEASURED_PROPERTY>
Plant response rating, Bermudagrass

>  <MEASUREMENT>
0

$$$$
>  <SMILES_TEXT>
CCOC(=O)Cc1nc(C2CC2)nc(N=CN(C)C)c1Br

>  <MEASURED_PROPERTY>
Plant response rating, Bermudagrass

>  <MEASUREMENT>
0

$$$$
>  <SMILES_TEXT>
CCCOC(=O)c1nc(C2CC2)nc(N)c1Br

>  <MEASURED_PROPERTY>
Plant response rating, Bermudagrass

>  <MEASUREMENT>
0

$$$$
>  <SMILES_TEXT>
CCCCOC(=O)c1nc(C2CC2)nc(N)c1Br

>  <MEASURED_PROPERTY>
Plant response rating, Bermudagrass

>  <MEASUREMENT>
0

$$$$

* * *

# Test system: crabgrass (Digitaria sanguinalis)
# EXPERIMENT_DESCRIPTION: Test A pre/postemergence
# Type: in vivo
# EXPERIMENTAL_CONTEXT: Digitaria sanguinalis, pre-emergence, 240 h, Preemergence, 500 g ai/ha; 0 to 100 scale where 0 is no effect and 100 is complete control; approximately ten days; read-out: Plant response rating, Crabgrass
Classification field: rule met = pest or weed control at 500 g/ha at or over 20%; rule not met = pest or weed control at 500 g/ha under 20%.

>  <COMPOUND>
COC(=O)c1nc(C(C)C)nc(N)c1Cl [Compound 110]

>  <LABEL>
rule not met

$$$$
>  <COMPOUND>
CNc1nc(C2CC2)nc(C(=O)OC)c1Cl [Compound 79]

>  <LABEL>
rule met

$$$$
>  <COMPOUND>
COC(=O)c1nc(C2CC2)nc(N)c1OC [Compound 59]

>  <LABEL>
rule not met

$$$$
>  <COMPOUND>
CNC(=O)c1nc(C2CC2)nc(N)c1Cl [Compound 81]

>  <LABEL>
rule not met

$$$$
>  <COMPOUND>
Nc1nc(-c2ccc(Cl)cc2)nc(C(=O)O)c1Cl [Compound 65]

>  <LABEL>
rule met

$$$$
>  <COMPOUND>
CCOC(=O)c1nc(-c2ccc(Br)cc2)nc(N)c1Cl [Compound 94]

>  <LABEL>
rule met

$$$$

* * *

# System: duck salad (Heteranthera limosa)
# EXPERIMENT_DESCRIPTION: Test B flooded paddy test
# Format: in vivo
# EXPERIMENTAL_CONTEXT: Heteranthera limosa, Flood, 125 g ai/ha; scale 0 to 100; read-out: Plant response rating, Ducksalad

>  <COMPOUND>
Nc1nc(C2CC2)nc(C(=O)OCc2ccccc2)c1Cl

>  <pest or weed control at 125 g/ha / %>
20

$$$$
>  <COMPOUND>
COC(=O)c1nc(-c2ccc(Br)cc2)nc(N)c1Cl

>  <pest or weed control at 125 g/ha / %>
100

$$$$
>  <COMPOUND>
COC(=O)c1nc(-c2ccc(Cl)cc2)nc(N)c1Cl

>  <pest or weed control at 125 g/ha / %>
100

$$$$
>  <COMPOUND>
CCOC(=O)c1nc(-c2ccc(Cl)cc2)nc(N)c1Cl

>  <pest or weed control at 125 g/ha / %>
90

$$$$
>  <COMPOUND>
Nc1nc(C2CC2)nc(C(=O)[O-])c1Cl.[Na+] [Compound 77, monosodium salt]

>  <pest or weed control at 125 g/ha / %>
40

$$$$

* * *

# Test system: smallflower umbrella sedge (Cyperus difformis)
# EXPERIMENT_DESCRIPTION: Test E flooded paddy water application
# Assay type: in vivo
# EXPERIMENTAL_CONTEXT: 64 g ai/ha; Flood; 21 days; scale 0 to 100 (0 no effect, 100 complete control)
Below: a set of entries, each annotated with reported Sedge, Umbrella plant response rating.
MEASURED_PROPERTY: Sedge, Umbrella plant response rating

>  <COMPOUND>
CCOC(=O)c1nc(-c2ccc(Cl)c(Cl)c2)nc(N)c1Cl [Compound 73]

>  <MEASUREMENT>
0

$$$$
>  <COMPOUND>
COC(=O)c1nc(-c2ccc(C)cc2)nc(N)c1Cl [Compound 84]

>  <MEASUREMENT>
80

$$$$
>  <COMPOUND>
CCOC(=O)c1nc(-c2ccc(C)cc2)nc(N)c1Cl [Compound 62]

>  <MEASUREMENT>
80

$$$$
>  <COMPOUND>
CCOC(=O)c1nc(-c2ccc(Cl)cc2F)nc(N)c1Br [Compound 69]

>  <MEASUREMENT>
30

$$$$
>  <COMPOUND>
COC(=O)c1nc(-c2ccc(C(F)(F)F)cc2)nc(N)c1Cl [Compound 44]

>  <MEASUREMENT>
90

$$$$
>  <COMPOUND>
CCOC(=O)c1nc(-c2ccc(OC)cc2)nc(N)c1Cl [Compound 98]

>  <MEASUREMENT>
60

$$$$
>  <COMPOUND>
CCOC(=O)c1nc(-c2ccc(Cl)cc2)nc(N)c1Br [Compound 37]

>  <MEASUREMENT>
50

$$$$
>  <COMPOUND>
CCOC(=O)c1nc(-c2ccc(Cl)cc2)nc(N)c1Cl [Compound 64]

>  <MEASUREMENT>
85

$$$$
>  <COMPOUND>
CCOC(=O)c1nc(-c2ccc(Cl)cc2Cl)nc(N)c1Cl [Compound 72]

>  <MEASUREMENT>
75

$$$$
>  <COMPOUND>
Nc1nc(-c2ccc(Cl)cc2)nc(C(=O)[O-])c1Cl.[Na+] [Compound 117]

>  <MEASUREMENT>
100

$$$$
>  <COMPOUND>
COC(=O)c1nc(-c2ccc(I)cc2)nc(N)c1Br [Compound 128]

>  <MEASUREMENT>
70

$$$$
>  <COMPOUND>
Nc1nc(-c2ccc(Cl)cc2)nc(C(=O)OCc2ccccc2)c1Cl [Compound 118]

>  <MEASUREMENT>
100

$$$$

* * *

# Tested on: corn (Zea mays)
# EXPERIMENT_DESCRIPTION: Test B pre/postemergence
# Assay type: in vivo
# EXPERIMENTAL_CONTEXT: Preemergence, 125 g ai/ha; scale 0 to 100 (0 no effect, 100 complete control)

>  <SMILES_TEXT>
CCOC(=O)c1nc(C2CC2)nc(NOC(C)(C)C)c1Br

>  <ASSAYED_SYSTEM>
corn (Zea mays)

>  <Plant response rating, Corn>
0

$$$$
>  <SMILES_TEXT>
CCOC(=O)c1nc(C2CC2)nc(N2CCCC2)c1Br

>  <ASSAYED_SYSTEM>
corn (Zea mays)

>  <Plant response rating, Corn>
0

$$$$
>  <SMILES_TEXT>
CCOC(=O)Cc1nc(C2CC2)nc(N)c1Br

>  <ASSAYED_SYSTEM>
corn (Zea mays)

>  <Plant response rating, Corn>
0

$$$$

* * *

# Tested on: woolly cupgrass (Eriochloa villosa)
# EXPERIMENT_DESCRIPTION: Test C pre/postemergence
# Type: in vivo
# EXPERIMENTAL_CONTEXT: Preemergence, 250 g ai/ha; scale 0 to 100
This listing pairs compounds with measured Plant response rating, Cupgrass, Woolly.

>  <COMPOUND>
CCOC(=O)C(Cl)c1nc(C2CC2)nc(N)c1Br (stereo not drawn)

>  <ASSAYED_SYSTEM>
woolly cupgrass (Eriochloa villosa)

>  <Plant response rating, Cupgrass, Woolly>
0

$$$$
>  <COMPOUND>
COC(=O)Cc1nc(C2CC2)nc(N)c1Br

>  <ASSAYED_SYSTEM>
woolly cupgrass (Eriochloa villosa)

>  <Plant response rating, Cupgrass, Woolly>
0

$$$$
>  <COMPOUND>
CCCOC(=O)c1nc(C2CC2)nc(N)c1Br

>  <ASSAYED_SYSTEM>
woolly cupgrass (Eriochloa villosa)

>  <Plant response rating, Cupgrass, Woolly>
85

$$$$
>  <COMPOUND>
COC(=O)c1nc(C2CC2C)nc(N)c1Br (stereo not drawn)

>  <ASSAYED_SYSTEM>
woolly cupgrass (Eriochloa villosa)

>  <Plant response rating, Cupgrass, Woolly>
0

$$$$
>  <COMPOUND>
CNN=Cc1nc(C2CC2)nc(N)c1Br

>  <ASSAYED_SYSTEM>
woolly cupgrass (Eriochloa villosa)

>  <Plant response rating, Cupgrass, Woolly>
20

$$$$
>  <COMPOUND>
CN(C)N=Cc1nc(C2CC2)nc(N)c1Br

>  <ASSAYED_SYSTEM>
woolly cupgrass (Eriochloa villosa)

>  <Plant response rating, Cupgrass, Woolly>
0

$$$$
